- method_description: Phase I/IIa clinical PK of oral psilocin-d10, plasma, noncompartmental analysis (Cohorts 1-6)
- Type: in vivo, human
- stated_conditions: human, plasma, po, 1 mg, 1 mg oral, Cohort 1 MDD, Day 1 and Day 22 pooled; read-out: AUC0-inf Mean (SD)
recorded_metric: AUC(0-inf) (ng·h/mL)
One number for each entry, in ng·h/mL.

The molecule [2H]C([2H])([2H])N(C([2H])([2H])[2H])C([2H])([2H])C([2H])([2H])c1c[nH]c2cccc(O)c12 showed AUC(0-inf) equal to 10.2

====

- method_description: Phase I/IIa clinical PK of oral psilocin-d10, plasma, noncompartmental analysis (Cohorts 1-6)
- Format: in vivo, human
- stated_conditions: human, plasma, po, 12 mg, 12 mg oral, Cohorts 4 and 5 MDD, Day 1 and Day 22; read-out: AUC0-24 Mean (SD)
- Excerpt: Phase I/IIa, Randomized, Double-Blind, Placebo-Controlled Study which assesses the safety, tolerability, pharmacokinetics, and pharmacodynamics of multiple ascending oral doses of psilocin-d10 in participants with and without MDD (ClinicalTrials.gov Identifier: NCT05385783). […]
recorded_metric: AUC(0-t) (ng·h/mL)
One number for each entry, in ng·h/mL.

The molecule [2H]C([2H])([2H])N(C([2H])([2H])[2H])C([2H])([2H])C([2H])([2H])c1c[nH]c2cccc(O)c12 showed AUC(0-t) equal to 146

From: patent US20240293367A1
